Experiment: Inhibition of pErk in AU565 cells
Assay type: cell-based
Reported property: IC50 (nM)
# output: bare number, implied unit nM

Inquiry: Given the compound NC(=O)c1ccc(-n2c3c(c4ccccc42)C(=O)CCC3)cc1NC1CCOCC1 , what is its reported IC50?
Reply text: 590

---

Assay: Binding affinity to Hsp90 in pig spleen extract by Bradford protein assay
Type: tissue-based, Sus scrofa
Kindly state pKd for each of the entries shown.
Interpret pKd as the negative base-10 log of the concentration measured in mol/L.

Inquiry: Given the compound NC(=O)c1ccc(-n2c3c(c4ccccc42)C(=O)CCC3)cc1NCc1ccncc1 , what is its reported pKd?
Reply text: 6.09

Inquiry: Given the compound NC(=O)c1ccc(-n2c3c(c4cc(F)ccc42)C(=O)CCC3)cc1NCCCN1CCOCC1 , what is its reported pKd?
Reply text: 5.96

Inquiry: Given the compound CCCNc1cc(-n2c3c(c4ccccc42)C(=O)CCC3)ccc1C(N)=O , what is its reported pKd?
Reply text: 6.46

Inquiry: Given the compound NC(=O)c1ccc(-n2c3c(c4cc(F)ccc42)C(=O)CCC3)cc1NCc1cccnc1 , what is its reported pKd?
Reply text: 5.96

Inquiry: Given the compound NC(=O)c1ccc(-n2c3c(c4ccccc42)C(=O)CCC3)cc1N , what is its reported pKd?
Reply text: 5.54

Inquiry: Given the compound NC(=O)c1ccc(-n2c3c(c4ccccc42)C(=O)CCC3)cc1Nc1ccccc1 , what is its reported pKd?
Reply text: 6.00

Inquiry: Given the compound NC(=O)c1ccc(-n2c3c(c4ccccc42)C(=O)CCC3)cc1NC1CCC(O)CC1 (stereo not drawn) , what is its reported pKd?
Reply text: 6.05

Inquiry: Given the compound CC1(C)CC(=O)c2c(n(-c3ccc(C(N)=O)cc3)c3ccccc23)C1 , what is its reported pKd?
Reply text: 6.12

Inquiry: Given the compound NC(=O)c1ccc(-n2c3c(c4ccccc42)C(=O)CCC3)cc1 , what is its reported pKd?
Reply text: 5.74

Inquiry: Given the compound NC(=O)c1ccc(-n2c3c(c4ccccc42)C(=O)CCC3)cc1NC1CC1 , what is its reported pKd?
Reply text: 6.46

Inquiry: Given the compound NC(=O)c1ccc(-n2c3c(c4ccccc42)C(=O)CCC3)cc1NCC1CC1 , what is its reported pKd?
Reply text: 6.57

Inquiry: Given the compound COCCNc1cc(-n2c3c(c4cc(F)ccc42)C(=O)CCC3)ccc1C(N)=O , what is its reported pKd?
Reply text: 6.11

Inquiry: Given the compound C=CCNc1cc(-n2c3c(c4cc(F)ccc42)C(=O)CCC3)ccc1C(N)=O , what is its reported pKd?
Reply text: 6.60

Inquiry: Given the compound CC1CC(=O)c2c(n(-c3ccc(C(N)=O)c(NCC4CC4)c3)c3ccccc23)C1 (stereo not drawn) , what is its reported pKd?
Reply text: 5.54

Inquiry: Given the compound NC(=O)c1ccc(-n2c3c(c4ccccc42)C(=O)CCC3)cc1NC1CCC1 , what is its reported pKd?
Reply text: 6.51

Inquiry: Given the compound NC(=O)c1ccc(-n2c3c(c4ccccc42)C(=O)CCC3)cc1NCCN1CCCC1 , what is its reported pKd?
Reply text: 5.72

Inquiry: Given the compound NC(=O)c1ccc(-n2c3c(c4ccccc42)C(=O)CCC3)cc1NC1CCOCC1 , what is its reported pKd?
Reply text: 6.39

Inquiry: Given the compound CC1(C)CC(=O)c2c(n(-c3ccc(C(N)=O)c(NC4CC4)c3)c3ccccc23)C1 , what is its reported pKd?
Reply text: 6.46

Inquiry: Given the compound CN(C)CCNc1cc(-n2c3c(c4cc(F)ccc42)C(=O)CCC3)ccc1C(N)=O , what is its reported pKd?
Reply text: 5.92

Inquiry: Given the compound NC(=O)c1ccc(-n2c3c(c4cc(F)ccc42)C(=O)CCC3)cc1NC1CC1 , what is its reported pKd?
Reply text: 6.60

Inquiry: Given the compound NC(=O)c1ccc(-n2c3c(c4cc(F)ccc42)C(=O)CCC3)cc1NN1CCOCC1 , what is its reported pKd?
Reply text: 6.57
